# TARGET OF ASSAY: Aurora-A/TPX2 complex (Homo sapiens, UniProt O14965)
# Construct: His-tag (N); host or cells: Escherichia coli BL21(DE3)
# Sequence (O14965 whole entry, one chain of several): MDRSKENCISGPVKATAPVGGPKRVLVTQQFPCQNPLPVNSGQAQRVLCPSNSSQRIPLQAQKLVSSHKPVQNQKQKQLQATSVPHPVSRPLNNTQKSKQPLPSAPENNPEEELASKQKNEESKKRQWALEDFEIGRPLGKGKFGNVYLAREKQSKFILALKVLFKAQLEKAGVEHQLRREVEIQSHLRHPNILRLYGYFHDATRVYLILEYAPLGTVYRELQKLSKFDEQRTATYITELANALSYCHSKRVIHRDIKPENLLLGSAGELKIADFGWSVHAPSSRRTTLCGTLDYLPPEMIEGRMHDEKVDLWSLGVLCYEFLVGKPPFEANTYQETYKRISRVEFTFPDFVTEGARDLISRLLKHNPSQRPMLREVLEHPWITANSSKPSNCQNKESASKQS
# METHOD: SPR competition between GST-TPX2-1-43 and compounds for Aurora-A binding
PROPERTY: IC50 (µM)
Please state the figure in µM; there is no need to write the unit.

## Task Please look up its IC50: COc1cc(NC(=S)NC(=O)c2cccc(F)c2)ccc1NC(=O)c1cc2ccccc2o1 [C20]
## Result 20

----------
# TARGET OF ASSAY: Aurora-A/TPX2 complex (Homo sapiens)
# Construct: His-tag (N); host or cells: Escherichia coli BL21(DE3)
# METHOD: SPR competition between GST-TPX2-1-43 and compounds for Aurora-A binding
# COND: read-out: IC50
As shown below, each of these molecules has a reported IC50 value.
Please state the figure in µM; there is no need to write the unit.

## Task Please look up its IC50: COc1ccc(CNC(=O)C(C)Oc2ccc3c(c2)c2ccnc4c5ccccc5c(=O)n3c24)cc1 (stereo not shown) [C23]
## Result 30

## Task Please look up its IC50: CC(Oc1ccc2c(c1)c1ccnc3c4ccccc4c(=O)n2c13)C(=O)NCc1ccc2c(c1)OCO2 (stereo not shown) [C25]
## Result 40

## Task Please look up its IC50: O=C1Nc2ccccc2/C1=N/NC(=O)c1ccc2ccccc2n1 [C02]
## Result 40
